# experimental-details: Cytotoxicity against human TZM-bl cells
# Assay type: cell-based
# CC50 listing for each entry below
Field format: number, assumed µM, no unit text.

Take a look at these entries with their results.
>  <smiles-text>
Cc1cc(/C=C/C#N)cc(C)c1Oc1cc(Nc2ccc(C#N)cc2)c(N)cc1C(=O)O

>  <measure>
CC50

>  <obs-value>
14.9

$$$$
>  <smiles-text>
Cc1cc(/C=C/C#N)cc(C)c1Nc1ccnc(Nc2ccc(C#N)cc2)n1

>  <measure>
CC50

>  <obs-value>
19.4

$$$$

// switching to the query compound
State the recorded CC50 for this entry: Cc1cc(/C=C/C#N)cc(C)c1Oc1cc(Nc2ccc(C#N)cc2)c(N)cc1CO 16.3

---

# selectivity ratio listing for each entry below
# experimental-details: Selectivity index, ratio of CC50 for human TZM-bl cells to EC50 for Human immunodeficiency virus 1 NL4-3
# Type: toxicity, cell-based
# measurement-context: read-out: Ratio CC50/EC50
# print the numeric value only

>  <smiles-text>
Cc1cc(/C=C/C#N)cc(C)c1Oc1cc(Nc2ccc(C#N)cc2)c(N)cc1C(=O)O

>  <selectivity ratio>
65

$$$$

State the recorded selectivity ratio for this entry: Cc1cc(/C=C/C#N)cc(C)c1Oc1cc(Nc2ccc(C#N)cc2)c(N)cc1CO 30800

---

# experimental-details: Aqueous solubility of the compound at pH 2 by HPLC/UV analysis
# Assay type: physicochemical
# measurement-context: buffer
Assign class by solubility: not lower than 2 µg/mL means YES; lower than 2 µg/mL means NO.

Check out these entries, answers already filled in.
>  <smiles-text>
COC(=O)c1cc(N)c(Nc2ccc(C#N)cc2)cc1Oc1c(C)cc(/C=C/C#N)cc1C

>  <assigned-category>
NO

$$$$
>  <smiles-text>
Cc1cc(/C=C/C#N)cc(C)c1Oc1cc(Nc2ccc(C#N)cc2)c(N)cc1C(N)=O

>  <assigned-category>
YES

$$$$
>  <smiles-text>
Cc1cc(/C=C/C#N)cc(C)c1Oc1cc(Nc2ccc(C#N)cc2)c(N)cc1C(=O)O

>  <assigned-category>
YES

$$$$
>  <smiles-text>
CNC(=O)c1cc(N)c(Nc2ccc(C#N)cc2)cc1Oc1c(C)cc(/C=C/C#N)cc1C

>  <assigned-category>
YES

$$$$

Is reported solubility greater than or equal to 2 µg/mL here: Cc1cc(/C=C/C#N)cc(C)c1Oc1cc(Nc2ccc(C#N)cc2)c(N)cc1CO YES

---

# CLH listing for each entry below
# System: Liver microsomes
# experimental-details: Clearance in human liver microsomes at 1 uM
# Type: ADME, Microsome
Field format: number, assumed µL/min/mg, no unit text.

>  <smiles-text>
Cc1cc(/C=C/C#N)cc(C)c1Oc1cc(Nc2ccc(C#N)cc2)c(N)cc1CO

>  <CLH / µL/min/mg>
230

$$$$

State the recorded CLH for this entry: Cc1cc(/C=C/C#N)cc(C)c1Oc1cc(Nc2ccc(C#N)cc2)c(N)cc1[N+](=O)[O-] 150

State the recorded CLH for this entry: Cc1cc(/C=C/C#N)cc(C)c1Nc1ccnc(Nc2ccc(C#N)cc2)n1 200

State the recorded CLH for this entry: Cc1cc(/C=C/C#N)cc(C)c1Oc1cc(Nc2ccc(C#N)cc2)c(N)cc1C(N)=O 200

---

# Test system: Liver microsomes
# experimental-details: Half life in human liver microsomes at 1 uM
# Type: ADME, Microsome
# t1/2 listing for each entry below
Field format: number, assumed min, no unit text.

Take a look at these entries with their results.
>  <smiles-text>
Cc1cc(/C=C/C#N)cc(C)c1Oc1cc(Nc2ccc(C#N)cc2)c(N)cc1C(N)=O

>  <unit-of-measure>
min

>  <obs-value>
35

$$$$
>  <smiles-text>
Cc1cc(/C=C/C#N)cc(C)c1Oc1cc(Nc2ccc(C#N)cc2)c(N)cc1[N+](=O)[O-]

>  <unit-of-measure>
min

>  <obs-value>
47

$$$$
>  <smiles-text>
Cc1cc(/C=C/C#N)cc(C)c1Oc1cc(Nc2ccc(C#N)cc2)c(N)cc1CO

>  <unit-of-measure>
min

>  <obs-value>
30

$$$$

// switching to the query compound
State the recorded t1/2 for this entry: Cc1cc(/C=C/C#N)cc(C)c1Nc1ccnc(Nc2ccc(C#N)cc2)n1 34

---

# experimental-details: Cytotoxicity against human TZM-bl cells
# Type: cell-based
measure: CC50

Take a look at these entries with their results.
>  <smiles-text>
COC(=O)c1cc(N)c(Nc2ccc(C#N)cc2)cc1Oc1c(C)cc(/C=C/C#N)cc1C

>  <CC50>
> 22.8 µM

$$$$
>  <smiles-text>
Cc1cc(/C=C/C#N)cc(C)c1Oc1cc(Nc2ccc(C#N)cc2)c(N)cc1C(N)=O

>  <CC50>
> 23.6 µM

$$$$

// switching to the query molecule
State the recorded CC50 for this entry: CNC(=O)c1cc(N)c(Nc2ccc(C#N)cc2)cc1Oc1c(C)cc(/C=C/C#N)cc1C > 9.2 µM

---

# experimental-details: Selectivity index, ratio of CC50 for human TZM-bl cells to EC50 for Human immunodeficiency virus 1 NL4-3
# Assay type: toxicity, cell-based
# measurement-context: read-out: Ratio CC50/EC50
measure: selectivity ratio

Take a look at these entries with their results.
>  <smiles-text>
COC(=O)c1cc(N)c(Nc2ccc(C#N)cc2)cc1Oc1c(C)cc(/C=C/C#N)cc1C

>  <selectivity ratio>
> 8460

$$$$
>  <smiles-text>
CNC(=O)c1cc(N)c(Nc2ccc(C#N)cc2)cc1Oc1c(C)cc(/C=C/C#N)cc1C

>  <selectivity ratio>
> 1610

$$$$

// switching to the query compound
State the recorded selectivity ratio for this entry: Cc1cc(/C=C/C#N)cc(C)c1Oc1cc(Nc2ccc(C#N)cc2)c(N)cc1C(N)=O > 27100
